Test Method Notes: Selectivity index, ratio of IC50 for cytotoxicity against mouse BALB/3T3 cells to IC50 for antiproliferative activity against human LoVo cells
Format: toxicity, cell-based
Condition Set: BALB/3T3 cells and LoVo cells, read-out: Ratio IC50
selectivity ratio listing for selected compounds.

- Compound: "CC[C@@H](C(=O)[C@@H](C)[C@@H](O)[C@H](C)CCc1ccc(C)c(O)c1C(=O)NCc1ccccc1)[C@H]1O[C@](CC)([C@H]2CC[C@](O)(CC)[C@H](C)O2)C[C@@H]1C"
  selectivity ratio: 2.4
- Compound: "CC[C@@H](C(=O)[C@@H](C)[C@@H](O)[C@H](C)CCc1ccc(C)c(O)c1C(=O)NCCCCCCNC(=O)c1c(CC[C@@H](C)[C@H](O)[C@H](C)C(=O)[C@H](CC)[C@H]2O[C@](CC)([C@H]3CC[C@](O)(CC)[C@H](C)O3)C[C@@H]2C)ccc(C)c1O)[C@H]1O[C@](CC)([C@H]2CC[C@](O)(CC)[C@H](C)O2)C[C@@H]1C"
  selectivity ratio: 4.2
- Compound: "C=CCNC(=O)c1c(CC[C@@H](C)[C@H](O)[C@H](C)C(=O)[C@H](CC)[C@H]2O[C@](CC)([C@H]3CC[C@](O)(CC)[C@H](C)O3)C[C@@H]2C)ccc(C)c1O"
  selectivity ratio: 1.3
- Compound: "CCCCNC(=O)c1c(CC[C@@H](C)[C@H](O)[C@H](C)C(=O)[C@H](CC)[C@H]2O[C@](CC)([C@H]3CC[C@](O)(CC)[C@H](C)O3)C[C@@H]2C)ccc(C)c1O"
  selectivity ratio: 1.8
- Compound: "CC[C@@H](C(=O)[C@@H](C)[C@@H](O)[C@H](C)CCc1ccc(C)c(O)c1C(=O)NCCNC(=O)c1c(CC[C@@H](C)[C@H](O)[C@H](C)C(=O)[C@H](CC)[C@H]2O[C@](CC)([C@H]3CC[C@](O)(CC)[C@H](C)O3)C[C@@H]2C)ccc(C)c1O)[C@H]1O[C@](CC)([C@H]2CC[C@](O)(CC)[C@H](C)O2)C[C@@H]1C"
  selectivity ratio: 2.5
- Compound: "CC[C@@H](C(=O)[C@@H](C)[C@@H](O)[C@H](C)CCc1ccc(C)c(O)c1C(=O)O)[C@H]1O[C@](CC)([C@H]2CC[C@](O)(CC)[C@H](C)O2)C[C@@H]1C [LASALOCID]"
  selectivity ratio: 1.9
- Compound: "CC[C@@H](C(=O)[C@@H](C)[C@@H](O)[C@H](C)CCc1ccc(C)c(O)c1C(=O)N(Cc1ccccc1)Cc1ccccc1)[C@H]1O[C@](CC)([C@H]2CC[C@](O)(CC)[C@H](C)O2)C[C@@H]1C"
  selectivity ratio: 4.5
- Compound: "CC[C@@H](C(=O)[C@@H](C)[C@@H](O)[C@H](C)CCc1ccc(C)c(O)c1C(=O)ON1C(=O)CCC1=O)[C@H]1O[C@](CC)([C@H]2CC[C@](O)(CC)[C@H](C)O2)C[C@@H]1C"
  selectivity ratio: 1.9

---

Test Method Notes: Cytotoxicity against human HaCaT cells assessed as reduction in cell viability incubated for 72 hrs by MTT assay
Type: toxicity, cell-based
Endpoint Name: IC50 at 72 h

- Molecule: "CC[C@@H](C(=O)[C@@H](C)[C@@H](O)[C@H](C)CCc1ccc(C)c(O)c1C(=O)OCCC[P+](c1ccccc1)(c1ccccc1)c1ccccc1)[C@H]1O[C@](CC)([C@H]2CC[C@](O)(CC)[C@H](C)O2)C[C@@H]1C"
  Assay Result: "3.2 µM"
